The measurements presented in this section are drawn from patent US8252912B2.

Exercise: state measured Relative hNIS mRNA level for each of the compounds provided.
System: hNIS mRNA in KAK-1 cells
Assay: qRT-PCR assay of hNIS mRNA levels after treatments in KAK-1 cells
Format: cell-based, human
Details: relative to control = 1 (4 copies/10^9 18s RNA), azaC 0.5 μM, NaB 1 mM, CHX 10 μg/ml, 3-AB 7.5 mM, PJ34 30 μmole/liter
Method: The basal media and supplements were all from GIBCO/Invitrogen Corporation, Grand Island, N.Y. All thyroid cell lines were grown in phenol red-free RPMI 1640 (GIBCO) with 10% FBS, 100 nmol/L sodium selenite, and 0.1 nmol/L bovine TSH (Sigma) at 37° C. in 5% CO2. KAK-1 cells were also cultured in high-glucose, phenol red-free RPMI 1640 supplemented with 10% FBS, 100 nM sodium selenite, 5 pIU/ml human TSH, 0.1 mM non-essential amino acids, 1 mM sodium pyruvate at 37° C. in 5% CO2. […]
When you answer, write just the number.

According to the records, this compound C[C@@H]1C[C@@H]([C@H](O)CC2CC(=O)NC(=O)C2)C(=O)[C@@H](C)C1 [CHX, Cycloheximide] displays Relative hNIS mRNA level of 4

According to the records, this compound NC(=O)c1cccc(N)c1 [3-AB, 3-aminobenzamide] displays Relative hNIS mRNA level of 1

According to the records, this compound CN(C)CC(=O)Nc1ccc2[nH]c(=O)c3ccccc3c2c1 [PJ34] displays Relative hNIS mRNA level of 26

According to the records, this compound Nc1ncn([C@@H]2O[C@H](CO)[C@@H](O)[C@H]2O)c(=O)n1 [azaC, 5-azacytidine] displays Relative hNIS mRNA level of 5
